# System: HCC70 cell line
# test method notes: Inhibition of cell proliferation (CyQUANT Direct Cell Proliferation Assay)
# Type: cell-based
# condition: Homo sapiens, 72-hour proliferation assay
endpoint name: EC50
Respond with a number, then the unit of measure.

Entry under review: CC1(C)CC[C@H](Nc2ncc(C(F)(F)F)c(-c3c[nH]c4c(P(C)(C)=O)c(C#N)ccc34)n2)CN1 . Reported EC50?
3.6 nM

This collection of values is drawn from patent US20240034742A1.
